B1: KRT18 (parent)
chain: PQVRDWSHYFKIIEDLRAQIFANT

Variants of: B1
Assay: protein stability index of a GFP-peptide fusion (GPS, HEK-293T) (PSI 1-6); higher = more stable;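 also: lentivirally expressed fusions sorted by FACS into six bins by GFP to DsRed ratio, PSI derived from sequencing read proportions per bin multiplied by bin number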
Conditions: c terminus: a fixed tail appended
Response key: 1 means protein stability index >= 2; 0 means protein stability index < 2.

Consider the worked cases shown below.
>>> df
   mutations  group
0       Q19K      1
1       Q19N      1
2       R17K      1
3       Q19V      0
4       F10G      1
5       T24G      1
6        D5H      0
7       F21K      1

Here is another variant to look at.
Incoming: State whether the measured protein stability index reaches 2, counting equality as reaching it, for E14V
Outgoing: 1
